# assayed target: DCN1 (DCUND1) protein PONY domain (Homo sapiens (Human))
# method description: Off-rate measurement of reversible covalent molecules (jump dilution TR-FRET with Cy5 probe)
# Assay type: binding
# condition set: jump dilution, Cy5 covalent probe 150 nM, TR-FRET
Below, each entry is listed with its recorded koff.

Known results for compounds:
CCN1C(=O)[C@@H](NC(=O)c2cccc(C(F)(F)F)c2)[C@@H](C2CC2)c2c(C(=O)N3CS(=O)(=O)C[C@@H]3C#N)nn(C3CCOCC3)c21; 0.000378 s⁻¹
CCc1cccc(C(=O)N[C@@H]2C(=O)N(CC)c3c(c(C(=O)N4[C@H](C#N)C[C@H]5C[C@H]54)nn3C3CCOCC3)[C@@H]2C2CC2)c1; 7.5e-05 s⁻¹

Then this compound:
Q: Specify koff for CCN1C(=O)[C@@H](NC(=O)c2cccc(C(F)(F)F)c2)[C@@H](C2CC2)c2c(C(=O)N3[C@H](C#N)C[C@H]4C[C@H]43)nn(C3CCOCC3)c21 and stop.
Result: 7.96e-05 s⁻¹

====

# assayed target: DCN1 (DCUND1) protein PONY domain (Homo sapiens (Human), UniProt Q96GG9)
# Sequence (Q96GG9 60-248): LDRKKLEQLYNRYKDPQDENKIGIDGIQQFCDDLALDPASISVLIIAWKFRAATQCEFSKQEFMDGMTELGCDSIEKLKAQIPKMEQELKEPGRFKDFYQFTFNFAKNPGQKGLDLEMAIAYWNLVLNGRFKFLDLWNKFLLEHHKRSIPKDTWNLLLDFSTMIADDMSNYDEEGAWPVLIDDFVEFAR
# method description: TR-FRET assay, DCN1 binding with FAM-labeled probe
# condition set: 24 hr after treatment with compound; read-out: TR FRET IC50 24 hr
# Description: A TR-FRET assay was performed to evaluate the ability of the compounds to bind the DCN-1 protein. The TR-FRET assay was designed following the Scott et al. protocol (Scott et al., Nat Chem Biol. 2017 August; 13(8): 850-857. Doi:10.1038/nchembio.2386). […] The TR-FRET ratio between Tb-DCN1 and the FAM-labeled probe was measured in a 384-well opti-plate (Perkin Elmer) using a plate reader (BMG) at 1, 5, and 24 hrs after treatment with compound (final DMSO concentration of 0.1%).
metric: IC50

CCN1C(=O)[C@@H](NC(=O)c2cccc(C(F)(F)F)c2)[C@@H](c2ccc(F)cc2)c2c(NC(=O)CC#N)nn(-c3ccccc3)c21 (racemic) [Compound I-80]; 1000 to 3000 nM

Q: Specify IC50 for CCN1C(=O)[C@@H](NC(=O)c2cccc3ncoc23)[C@@H](C2CC2)c2c(C(=O)N3[C@H](C#N)C[C@H]4C[C@H]43)nn(C3CCOCC3)c21 [Compound I-565] and stop.
Result: ≤ 200 nM

Q: Specify IC50 for CCN(CC#N)C(=O)c1nn(-c2ccccc2)c2c1[C@H](c1ccc(F)cc1)[C@H](NC(=O)c1cccc(C(F)(F)F)c1)C(=O)N2CC (stereo in doubt) [Compound I-283] and stop.
Result: ≤ 200 nM

Q: Specify IC50 for CCN1C(=O)[C@@H](NC(=O)c2csc(C)c2)[C@@H](C2CC2)c2c(C(=O)N3[C@H](C#N)C[C@H]4C[C@H]43)nn(C3CCOCC3)c21 [Compound I-481] and stop.
Result: ≤ 200 nM

Q: Specify IC50 for CCN1C(=O)[C@H](NC(=O)c2cccc(C(F)(F)F)c2)[C@H](c2ccc(F)cc2)c2c(C(=O)N3[C@H](C#N)C[C@@H]4C[C@@H]43)nn(-c3ccccc3)c21 [Compound I-463] and stop.
Result: 1000 to 3000 nM

Q: Specify IC50 for CCN1C(=O)[C@@H](NC(=O)c2cccc(C(F)(F)F)c2)[C@@H](c2ccc(F)cc2)c2c(C(=O)N3CCCC[C@H]3C#N)nn(-c3ccccc3)c21 (mixture of isomers) [Compound I-270] and stop.
Result: ≤ 200 nM

Q: Specify IC50 for CCN1C(=O)[C@@H](NC(=O)c2cccc(C(F)(F)F)c2)[C@@H](c2ccc(F)cc2)c2c(/C=C3/CCC(=O)N3)nn(-c3ccccc3)c21 (racemic) [Compound I-70] and stop.
Result: 1000 to 3000 nM

Q: Specify IC50 for CCN1C(=O)[C@@H](NC(=O)c2cccc(C(F)(F)F)c2)[C@@H](c2ccc(F)cc2)c2c(CC/C=C\C(N)=O)nn(-c3ccccc3)c21 (racemic) [Compound I-142] and stop.
Result: 200 to 1000 nM

Q: Specify IC50 for C=C(CN1CC2CCC(C1)O2)C(=O)NCc1nn(-c2ccccc2)c2c1[C@H](c1ccc(F)cc1)[C@H](NC(=O)c1cccc(C(F)(F)F)c1)C(=O)N2CC [Compound I-50] and stop.
Result: ≤ 200 nM

Q: Specify IC50 for CCN1C(=O)[C@H](NC(=O)c2cccc(C(F)(F)F)c2)[C@H](c2ccc(F)cc2)c2c(C(=O)N3CCNC[C@H]3C#N)nn(-c3ccccc3)c21 [Compound I-453] and stop.
Result: 200 to 1000 nM

Q: Specify IC50 for C=CC(=O)N(C)Cc1nn(-c2ccccc2)c2c1[C@H](c1ccc(F)cc1)[C@H](NC(=O)c1cccc(C(F)(F)F)c1)C(=O)N2CC (racemic) [Compound I-29] and stop.
Result: 1000 to 3000 nM

Q: Specify IC50 for CCN1C(=O)[C@@H](NC(=O)c2cccc(C(F)(F)F)c2)[C@@H](c2ccc(F)cc2)c2c(CN(C)C(=O)C(F)Cl)nn(-c3ccccc3)c21 (mixture of isomers) [Compound I-145] and stop.
Result: 200 to 1000 nM

Q: Specify IC50 for CCN1C(=O)[C@H](NC(=O)c2cccc(C(F)(F)F)c2)[C@H](c2ccc(F)cc2)c2c(C(=O)N3CCC[C@H]3C#N)nn(-c3cccc(OCCN4CC5(COC5)C4)c3)c21 [Compound I-647] and stop.
Result: 1000 to 3000 nM

Q: Specify IC50 for CCN1C(=O)[C@@H](NC(=O)c2cccc(C(F)(F)F)c2)[C@@H](c2ccc(F)cc2)c2c(CN(C#N)CCCN(C)C3COC3)nn(-c3ccccc3)c21 [Compound I-646] and stop.
Result: ≤ 200 nM

Q: Specify IC50 for CC#CC(=O)Nc1nn(-c2ccccc2)c2c1[C@H](c1ccc(F)cc1)[C@H](NC(=O)c1cccc(C(F)(F)F)c1)C(=O)N2CC (racemic) [Compound I-51] and stop.
Result: 200 to 1000 nM

Q: Specify IC50 for CCN1C(=O)[C@H](NC(=O)c2cccc(C(F)(F)F)c2)[C@H](c2ccc(F)cc2)c2c(C(=O)N3CCC[C@H]3C#N)nn(-c3cccc(OCCCN(C)C4COC4)c3)c21 [Compound I-480] and stop.
Result: 1000 to 3000 nM

Q: Specify IC50 for CCN1C(=O)[C@@H](NC(=O)c2cccc(C(F)(F)F)c2)[C@@H](c2ccc(F)cc2)c2c(CNC(=O)/C=C/C(=O)O)nn(-c3ccccc3)c21 (racemic) [Compound I-59] and stop.
Result: 1000 to 3000 nM

Q: Specify IC50 for CCN1C(=O)[C@@H](NC(=O)c2cccc(C(F)(F)F)c2)[C@@H](C2CC2)c2c(C(=O)N(C)[C@H](C)C#N)nn(C3CCOCC3)c21 [Compound I-422] and stop.
Result: ≤ 200 nM

Q: Specify IC50 for CCN1C(=O)[C@H](NC(=O)c2cccc(C(F)(F)F)c2)[C@@H](c2ccc(F)cc2)c2c(C3(NC#N)CC3)nn(-c3ccccc3)c21 (racemic) [Compound I-84] and stop.
Result: 1000 to 3000 nM

Q: Specify IC50 for CCN1C(=O)[C@H](NC(=O)c2cccc(C(F)(F)F)c2)[C@@H](c2ccc(F)cc2)c2c(CN3C(=O)CC[C@H]3C#N)nn(-c3ccccc3)c21 [Compound I-596] and stop.
Result: 1000 to 3000 nM

Q: Specify IC50 for CCN1C(=O)[C@@](C)(NC(=O)c2cccc(C(F)(F)F)c2)[C@@H](C2CC2)c2c(C(=O)N3[C@H](C#N)C[C@H]4C[C@H]43)nn(C3CCOCC3)c21 [Compound I-516] and stop.
Result: ≤ 200 nM
